Ref: ChEMBL document CHEMBL3351293

Each entry below carries its reported inhibition.
# study.target: Cannabinoid receptor 2 (Homo sapiens, UniProt P34972)
# Sequence (P34972 whole entry): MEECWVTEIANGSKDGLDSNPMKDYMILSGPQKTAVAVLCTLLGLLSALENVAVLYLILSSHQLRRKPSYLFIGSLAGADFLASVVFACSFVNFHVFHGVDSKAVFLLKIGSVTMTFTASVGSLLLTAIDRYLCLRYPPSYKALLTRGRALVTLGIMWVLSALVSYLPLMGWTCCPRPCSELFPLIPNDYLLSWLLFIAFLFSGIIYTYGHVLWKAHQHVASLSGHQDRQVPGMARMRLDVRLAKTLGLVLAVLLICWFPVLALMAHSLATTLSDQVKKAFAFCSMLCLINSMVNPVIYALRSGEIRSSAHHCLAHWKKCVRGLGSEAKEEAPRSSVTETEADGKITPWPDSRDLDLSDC
# assay.protocol: Displacement of [3H] CP-55,940 from human CB2 receptor expressed in HEK cells at 10 uM after 3 hrs by scintillation counting
# Format: cell-based
# applied.conditions: HEK293
Express your answer in %, writing the number without its unit.

In the examples that follow, each entry is paired with its recorded inhibition.
Problem: Specify reported inhibition for the compound shown: Cc1c(C(=O)NCCCCNCc2ccccc2)nn(-c2ccc(Cl)cc2Cl)c1-c1ccc(Cl)cc1
Result: 85.4

Problem: Specify reported inhibition for the compound shown: Cc1c(C(=O)NCCCCCCCCN)nn(-c2ccc(Cl)cc2Cl)c1-c1ccc(Cl)cc1
Result: 9.5

Problem: Specify reported inhibition for the compound shown: Cc1c(C(=O)NCCCCNCc2cccc(CNCCCCNC(=O)c3nn(-c4ccc(Cl)cc4Cl)c(-c4ccc(Cl)cc4)c3C)c2)nn(-c2ccc(Cl)cc2Cl)c1-c1ccc(Cl)cc1
Result: 7

Here's the next entry for you.
Problem: Specify reported inhibition for the compound shown: Cc1c(C(=O)NCCCCNC(=O)[C@H]2CC[C@H](C(=O)NCCCCNC(=O)c3nn(-c4ccc(Cl)cc4Cl)c(-c4ccc(Cl)cc4)c3C)CC2)nn(-c2ccc(Cl)cc2Cl)c1-c1ccc(Cl)cc1
Result: 17.6

====

# study.target: UniProt:P21554
# Sequence (P21554 whole entry): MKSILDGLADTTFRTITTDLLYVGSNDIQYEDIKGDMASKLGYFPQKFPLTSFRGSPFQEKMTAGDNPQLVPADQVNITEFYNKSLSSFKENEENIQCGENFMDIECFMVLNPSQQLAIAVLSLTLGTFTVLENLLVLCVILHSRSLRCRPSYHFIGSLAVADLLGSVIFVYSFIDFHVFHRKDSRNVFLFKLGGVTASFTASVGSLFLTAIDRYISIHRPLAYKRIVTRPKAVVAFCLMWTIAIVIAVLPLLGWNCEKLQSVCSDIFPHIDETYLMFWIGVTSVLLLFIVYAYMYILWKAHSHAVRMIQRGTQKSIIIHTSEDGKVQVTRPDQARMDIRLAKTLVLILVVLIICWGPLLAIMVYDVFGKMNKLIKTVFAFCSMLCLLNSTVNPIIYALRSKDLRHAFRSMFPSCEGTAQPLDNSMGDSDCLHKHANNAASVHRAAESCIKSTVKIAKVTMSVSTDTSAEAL
# assay.protocol: Inverse agonist activity at human CB1 receptor expressed in Sf9 cells coexpressing Gbeta1gamma2 and RSG4 assessed as degradation of [gamma-33P]GTP after 20 mins by steady-state GTPase assay
Each entry below carries its reported pEC50.
Scale explanation: pEC50 corresponds to minus log10 of a concentration expressed in moles per litre.

In the examples that follow, each entry is paired with its recorded pEC50.
Problem: Report measured pEC50 on UniProt:P21554; entry: Cc1c(C(=O)NCCCCCCCCN)nn(-c2ccc(Cl)cc2Cl)c1-c1ccc(Cl)cc1
Result: 6.95

Problem: Report measured pEC50 on UniProt:P21554; entry: Cc1c(C(=O)NCCCCCCCCNC(=O)c2cccc(C(=O)NCCCCCCCCNC(=O)c3nn(-c4ccc(Cl)cc4Cl)c(-c4ccc(Cl)cc4)c3C)c2)nn(-c2ccc(Cl)cc2Cl)c1-c1ccc(Cl)cc1
Result: 4.87

Problem: Report measured pEC50 on UniProt:P21554; entry: Cc1c(C(=O)NCCCCN)nn(-c2ccc(Cl)cc2Cl)c1-c1ccc(Cl)cc1
Result: 5.55

Problem: Report measured pEC50 on UniProt:P21554; entry: Cc1c(C(=O)NCCCCNC(=O)C23CC4CC(C2)CC(C(=O)NCCCCNC(=O)c2nn(-c5ccc(Cl)cc5Cl)c(-c5ccc(Cl)cc5)c2C)(C4)C3)nn(-c2ccc(Cl)cc2Cl)c1-c1ccc(Cl)cc1
Result: 4.79

Problem: Report measured pEC50 on UniProt:P21554; entry: Cc1c(C(=O)NCCCCCCCN(CCCCCCCNC(=O)c2nn(-c3ccc(Cl)cc3Cl)c(-c3ccc(Cl)cc3)c2C)Cc2ccccc2)nn(-c2ccc(Cl)cc2Cl)c1-c1ccc(Cl)cc1
Result: 5.41

Problem: Report measured pEC50 on UniProt:P21554; entry: Cc1c(C(=O)NCCCCCCCCNC(=O)[C@@H]2CCC[C@@H](C(=O)NCCCCCCCCNC(=O)c3nn(-c4ccc(Cl)cc4Cl)c(-c4ccc(Cl)cc4)c3C)C2)nn(-c2ccc(Cl)cc2Cl)c1-c1ccc(Cl)cc1
Result: 5.12

Problem: Report measured pEC50 on UniProt:P21554; entry: Cc1c(C(=O)NCCCCNCc2cccc(CNCCCCNC(=O)c3nn(-c4ccc(Cl)cc4Cl)c(-c4ccc(Cl)cc4)c3C)c2)nn(-c2ccc(Cl)cc2Cl)c1-c1ccc(Cl)cc1
Result: 5.05

Problem: Report measured pEC50 on UniProt:P21554; entry: Cc1c(C(=O)NCCCCNC(=O)C2CCCCC2)nn(-c2ccc(Cl)cc2Cl)c1-c1ccc(Cl)cc1
Result: 6.96

Problem: Report measured pEC50 on UniProt:P21554; entry: Cc1c(C(=O)NCCCCNC(=O)c2ccc(C(=O)NCCCCNC(=O)c3nn(-c4ccc(Cl)cc4Cl)c(-c4ccc(Cl)cc4)c3C)cc2)nn(-c2ccc(Cl)cc2Cl)c1-c1ccc(Cl)cc1
Result: 4.82

Problem: Report measured pEC50 on UniProt:P21554; entry: Cc1c(C(=O)NCCCCNCc2ccccc2)nn(-c2ccc(Cl)cc2Cl)c1-c1ccc(Cl)cc1
Result: 6.18

Further cases:
Problem: Report measured pEC50 on UniProt:P21554; entry: Cc1c(C(=O)NCCCCNC(=O)[C@H]2CCCC[C@@H]2C(=O)NCCCCNC(=O)c2nn(-c3ccc(Cl)cc3Cl)c(-c3ccc(Cl)cc3)c2C)nn(-c2ccc(Cl)cc2Cl)c1-c1ccc(Cl)cc1 (relative stereo)
Result: 4.98

Problem: Report measured pEC50 on UniProt:P21554; entry: Cc1c(C(=O)NCCCCCCCCNC(=O)[C@H]2CC[C@H](C(=O)NCCCCCCCCNC(=O)c3nn(-c4ccc(Cl)cc4Cl)c(-c4ccc(Cl)cc4)c3C)CC2)nn(-c2ccc(Cl)cc2Cl)c1-c1ccc(Cl)cc1
Result: 5.02

Problem: Report measured pEC50 on UniProt:P21554; entry: Cc1c(C(=O)NCCCCCCCCNC(=O)c2ccc(C(=O)NCCCCCCCCNC(=O)c3nn(-c4ccc(Cl)cc4Cl)c(-c4ccc(Cl)cc4)c3C)cc2)nn(-c2ccc(Cl)cc2Cl)c1-c1ccc(Cl)cc1
Result: 4.39

Problem: Report measured pEC50 on UniProt:P21554; entry: Cc1c(C(=O)NCCCCCCCCNC(=O)[C@@H]2CCC[C@H](C(=O)NCCCCCCCCNC(=O)c3nn(-c4ccc(Cl)cc4Cl)c(-c4ccc(Cl)cc4)c3C)C2)nn(-c2ccc(Cl)cc2Cl)c1-c1ccc(Cl)cc1
Result: 5.50

Problem: Report measured pEC50 on UniProt:P21554; entry: Cc1c(C(=O)NCCCCNC(=O)[C@@H]2CCC[C@@H](C(=O)NCCCCNC(=O)c3nn(-c4ccc(Cl)cc4Cl)c(-c4ccc(Cl)cc4)c3C)C2)nn(-c2ccc(Cl)cc2Cl)c1-c1ccc(Cl)cc1 (relative stereo)
Result: 5.07

Problem: Report measured pEC50 on UniProt:P21554; entry: Cc1c(C(=O)NCCCCNC(=O)c2ccccc2)nn(-c2ccc(Cl)cc2Cl)c1-c1ccc(Cl)cc1
Result: 6.11

Problem: Report measured pEC50 on UniProt:P21554; entry: Cc1c(C(=O)NCCCCNC(=O)[C@@H]2CCC[C@H](C(=O)NCCCCNC(=O)c3nn(-c4ccc(Cl)cc4Cl)c(-c4ccc(Cl)cc4)c3C)C2)nn(-c2ccc(Cl)cc2Cl)c1-c1ccc(Cl)cc1
Result: 4.61

Problem: Report measured pEC50 on UniProt:P21554; entry: Cc1c(C(=O)NCCCCCCCCNC(=O)C2CCCCC2)nn(-c2ccc(Cl)cc2Cl)c1-c1ccc(Cl)cc1
Result: 5.96

Problem: Report measured pEC50 on UniProt:P21554; entry: Cc1c(C(=O)NCCCCCCCCNCc2ccccc2)nn(-c2ccc(Cl)cc2Cl)c1-c1ccc(Cl)cc1
Result: 6.91

Problem: Report measured pEC50 on UniProt:P21554; entry: Cc1c(C(=O)NCCCCCCCCNC(=O)c2ccccc2)nn(-c2ccc(Cl)cc2Cl)c1-c1ccc(Cl)cc1
Result: 6.30

Problem: Report measured pEC50 on UniProt:P21554; entry: Cc1c(C(=O)NCCCCCCCCNC(=O)[C@H]2CC[C@@H](C(=O)NCCCCCCCCNC(=O)c3nn(-c4ccc(Cl)cc4Cl)c(-c4ccc(Cl)cc4)c3C)CC2)nn(-c2ccc(Cl)cc2Cl)c1-c1ccc(Cl)cc1
Result: 5.06

Problem: Report measured pEC50 on UniProt:P21554; entry: Cc1c(C(=O)NCCCCNCc2ccc(C(=O)NCCCCNC(=O)c3nn(-c4ccc(Cl)cc4Cl)c(-c4ccc(Cl)cc4)c3C)cc2)nn(-c2ccc(Cl)cc2Cl)c1-c1ccc(Cl)cc1
Result: 5.72

====

# study.target: UniProtKB P34972
# assay.protocol: Displacement of [3H] CP-55,940 from human CB2 receptor expressed in HEK cells at 10 uM after 3 hrs by scintillation counting
# Format: cell-based
# applied.conditions: HEK293
quantity: inhibition (%)
Express your answer in %, writing the number without its unit.

In the examples that follow, each entry is paired with its recorded inhibition.
Problem: Report measured inhibition on UniProtKB P34972; entry: Cc1c(C(=O)NCCCCNCc2cccc(C(=O)NCCCCNC(=O)c3nn(-c4ccc(Cl)cc4Cl)c(-c4ccc(Cl)cc4)c3C)c2)nn(-c2ccc(Cl)cc2Cl)c1-c1ccc(Cl)cc1
Result: 15.3

Problem: Report measured inhibition on UniProtKB P34972; entry: Cc1c(C(=O)NCCCCCCCCNC(=O)c2cccc(C(=O)NCCCCCCCCNC(=O)c3nn(-c4ccc(Cl)cc4Cl)c(-c4ccc(Cl)cc4)c3C)c2)nn(-c2ccc(Cl)cc2Cl)c1-c1ccc(Cl)cc1
Result: 29.1

Further cases:
Problem: Report measured inhibition on UniProtKB P34972; entry: Cc1c(C(=O)NCCCCNCc2ccc(CNCCCCNC(=O)c3nn(-c4ccc(Cl)cc4Cl)c(-c4ccc(Cl)cc4)c3C)cc2)nn(-c2ccc(Cl)cc2Cl)c1-c1ccc(Cl)cc1
Result: 102
